# Tested on: A498
# measurement protocol: NCI tumour cell line growth inhibition, 48 h
Calls of active or inactive are those of the source. No stated cut-off is given here; in the data, active = GI50 up to about 1.1 µM and inactive = higher.
readout kind: GI50

In [3]: df
Out[3]:
                                   compound  test_target      endpoint_result
0  COc1cc(C2S/C(=C/c3ccccc3)C(=O)N2c2cc(Cl)ccc2Cl)cc(OC)c1OC (centres undefined)         A498  > 100 µM (inactive)
1  CCN1CC2(CO)CCC(OC)C34C5CC6C(OC)CC(O)(C5C6OC)C(O)(C(OC)C23)C14 (centres undefined)         A498  > 375 µM (inactive)
2                    O=C1NC2=NOC(=O)NC2=NO1         A498  > 200 µM (inactive)
3  O=C(Nc1cccc2c1[nH]c1c(-c3ccccc3)nccc12)c1ccccc1[N+](=O)[O-]         A498   7.76 µM (inactive)
4  Cc1ccc2[nH]c(=O)c(C(C#N)c3ccccc3)nc2c1 (centres undefined)         A498  > 100 µM (inactive)
5  CCOC(=O)/C(=C/NC(=S)Nc1c(CC)cccc1C(C)(C)C)C(=O)c1ccccc1         A498  > 100 µM (inactive)
6  CN(CCNC(=O)c1nn(-c2ccccc2)c2c1Cc1ccccc1-2)CCNC(=O)c1nn(-c2ccccc2)c2c1Cc1ccccc1-2         A498   1.84 µM (inactive)
7  O=[N+]([O-])c1cccc(CSc2nc(O)c3nc[nH]c3n2)c1         A498  > 100 µM (inactive)
8  O=C(Nc1nc2ncn(CCNCCn3cnc4nc(NC(=O)c5ccccc5)[nH]c(=O)c43)c2c(=O)[nH]1)c1ccccc1         A498  > 100 µM (inactive)
